- Test name: Induction of Pradimicin-FA1 aggregation assessed as concentration required to induce 50% aggregation incubated for 15 mins and further incubated for 30 mins at room temperature by RP-HPLC analysis
Observable: AC50

Before answering, review these 6 worked examples.
Compound smiles: CO[C@H]1O[C@H](CO)[C@@H](O[C@@H]2O[C@H](CO)[C@H](OC)[C@H](O)[C@H]2NC(C)=O)[C@H](O)[C@@H]1NC(C)=O
AC50: > 10 mM
//
Compound smiles: CO[C@H]1O[C@H](CO)[C@@H](O)[C@H](O)[C@@H]1O
AC50: 5 mM
//
Compound smiles: OC[C@H]1O[C@H](OC[C@H]2O[C@H](O)[C@@H](O)[C@@H](O[C@@H]3O[C@H](CO)[C@@H](O)[C@H](O)[C@H]3O)[C@@H]2O)[C@@H](O)[C@@H](O)[C@@H]1O
AC50: 0.06 mM
//
Compound smiles: CO[C@H]1O[C@H](CO)[C@@H](O)[C@H](O)[C@@H]1O[C@@H]1O[C@H](CO)[C@@H](OC)[C@H](O)[C@@H]1NC(C)=O
AC50: > 10 mM
//
Compound smiles: CO[C@H]1O[C@H](CO[C@H]2O[C@H](CO)[C@@H](O)[C@H](O)[C@@H]2O)[C@@H](O)[C@H](O[C@@H]2O[C@H](CO)[C@@H](O)[C@H](O)[C@H]2O)[C@@H]1O
AC50: > 10 mM
//
Compound smiles: CO[C@H]1O[C@H](CO)[C@@H](O[C@@H]2O[C@H](CO)[C@H](O)[C@H](O)[C@H]2O)[C@H](O)[C@@H]1NC(C)=O
AC50: > 10 mM

Q. Kindly indicate its recorded AC50. Item: CO[C@H]1O[C@H](CO)[C@@H](O)[C@H](O)[C@@H]1O[C@@H]1O[C@H](CO)[C@@H](O)[C@H](O)[C@@H]1NC(C)=O
A. > 10 mM

Q. Kindly indicate its recorded AC50. Item: CO[C@H]1O[C@H](CO[C@H]2O[C@H](CO)[C@@H](O)[C@H](O)[C@H]2O)[C@@H](O)[C@H](O[C@@H]2O[C@H](CO)[C@@H](O)[C@H](O)[C@H]2O)[C@@H]1O
A. > 10 mM

Q. Kindly indicate its recorded AC50. Item: CO[C@H]1O[C@H](CO)[C@@H](O)[C@H](O)[C@@H]1O[C@H]1O[C@H](CO)[C@@H](O)[C@H](O)[C@@H]1O
A. > 10 mM

Q. Kindly indicate its recorded AC50. Item: CO[C@H]1O[C@H](CO[C@H]2O[C@H](CO)[C@@H](O)[C@H](O)[C@@H]2O[C@H]2O[C@H](CO)[C@@H](O)[C@H](O)[C@@H]2O)[C@@H](O)[C@H](O[C@H]2O[C@H](CO)[C@H](O)[C@@H](O)[C@@H]2O[C@@H]2O[C@H](CO)[C@@H](O)[C@H](O)[C@H]2O)[C@@H]1O
A. 0.07 mM

Q. Kindly indicate its recorded AC50. Item: CO[C@H]1O[C@H](CO[C@H]2O[C@H](CO)[C@@H](O)[C@H](O)[C@@H]2OC)[C@@H](O)[C@H](O[C@@H]2O[C@H](CO)[C@@H](O)[C@H](O)[C@H]2OC)[C@@H]1O
A. > 10 mM

Q. Kindly indicate its recorded AC50. Item: CO[C@@H]1O[C@H](CO[C@]2(C(=O)O)C[C@H](O)[C@@H](NC(C)=O)[C@H]([C@@H](O)[C@H](O)CO)O2)[C@H](O)[C@H](O)[C@H]1O
A. > 10 mM
